Please go through the items and note down their Percent Effect.
Species on record: Homo sapiens
method: To identify inhibition of the IFN signalling (Jak-Stat) pathway via expression of an eGFP reporter gene under the control of an IFN-stimulated response element (ISRE) containing MxA promoter.
Format: functional
Design: scale not given: direction of the effect not stated beside the values
condition parameters: 30 µM
Give bare numbers, in %.

# compound, quantitative result
rows = [
    ("CN(Cc1cnccn1)C(=O)c1ccnc(OC2CCC2)c1", 4.71),
]

List reported Percent Effect for each of these compounds:
1. Cn1cc(C(=O)N2CC[C@@H]3[C@@H]2CCN3Cc2cccc(F)c2)cn1
2. CC(C)n1[nH]c(=O)c2c1NC(=O)CC2c1ccc2ncccc2c1 (stereo not given)
3. CCS(=O)(=O)N1Cc2nccn2CC(COc2cccnc2)C1 (stereo not given)
4. Cc1ccc(CN2CCc3ncnc(-c4ccc(F)cc4)c3CC2)o1

A:
[-2.6, 17.7, 3.42, -0.337]
